- Test system: HUVEC
- assay explanation: Cytotoxicity against HUVEC cells after 72 hrs by MTT assay
- Type: cell-based
- condition: Homo sapiens
# key: entry, value: IC50

| molecule | IC50 |
| --- | --- |
| CO[C@@H]1O[C@H](C(=O)O)[C@@H](O)[C@H](O)[C@H]1OCCCC(=O)O[C@@H](C(=O)O[C@H]1C[C@@]2(O)[C@@H](OC(=O)c3ccccc3)[C@@H]3[C@]4(OC(C)=O)CO[C@@H]4C[C@H](O)[C@@]3(C)C(=O)[C@H](OC(C)=O)C(=C1C)C2(C)C)[C@@H](NC(=O)c1ccccc1)c1ccccc1 | 44 µM |
| CC(=O)O[C@H]1C(=O)[C@@]2(C)[C@H]([C@H](OC(=O)c3ccccc3)[C@]3(O)C[C@H](OC(=O)[C@H](O)[C@@H](NC(=O)c4ccccc4)c4ccccc4)C(C)=C1C3(C)C)[C@]1(OC(C)=O)CO[C@@H]1C[C@@H]2O | 5.14 µM |
| CO[C@@H]1O[C@H](C(=O)O)[C@@H](O)[C@H](O)[C@H]1OC(=O)CCC(=O)O[C@@H](C(=O)O[C@H]1C[C@@]2(O)[C@@H](OC(=O)c3ccccc3)[C@@H]3[C@]4(OC(C)=O)CO[C@@H]4C[C@H](O)[C@@]3(C)C(=O)[C@H](OC(C)=O)C(=C1C)C2(C)C)[C@@H](NC(=O)c1ccccc1)c1ccccc1 | > 100 µM |
| CO[C@@H]1O[C@H](CO)[C@@H](O)[C@H](O)[C@H]1OC(=O)CCC(=O)O[C@@H](C(=O)O[C@H]1C[C@@]2(O)[C@@H](OC(=O)c3ccccc3)[C@@H]3[C@]4(OC(C)=O)CO[C@@H]4C[C@H](O)[C@@]3(C)C(=O)[C@H](OC(C)=O)C(=C1C)C2(C)C)[C@@H](NC(=O)c1ccccc1)c1ccccc1 | > 100 µM |
| CO[C@@H]1O[C@H](CO)[C@@H](O)[C@H](O)[C@H]1OCCCC(=O)O[C@@H](C(=O)O[C@H]1C[C@@]2(O)[C@@H](OC(=O)c3ccccc3)[C@@H]3[C@]4(OC(C)=O)CO[C@@H]4C[C@H](O)[C@@]3(C)C(=O)[C@H](OC(C)=O)C(=C1C)C2(C)C)[C@@H](NC(=O)c1ccccc1)c1ccccc1 | > 100 µM |
